# System: MDRAB
# Assay method text: Checkerboard assay (combined-use MIC, FIC)
# Assay type: cell-based, Acinetobacter baumannii
# Test conditions: 20 MDRABs; antibiotic with 60% ethanol extract
Outcome measure: MIC50 of the antibiotic after combined use (µg/mL)
Report the figure in µg/mL without appending any unit label.

Query: I have this compound here, C[C@H]1COc2c(N3CCN(C)CC3)c(F)cc3c(=O)c(C(=O)O)cn1c23 [LVX, Levofloxacin] , and I need its recorded MIC50 of the antibiotic after combined use.
Reply: 4

Query: Looking for the measured MIC50 of the antibiotic after combined use of CN(C)[C@@H]1C(O)=C(C(N)=O)C(=O)[C@@]2(O)C(O)=C3C(=O)c4c(O)cccc4[C@@](C)(O)[C@H]3C[C@@H]12 [TE, Tetracycline] , can you help?
Reply: 32

Query: # input compound: C[C@@H](O)[C@H]1C(=O)N2C(C(=O)O)=C(SCCN=CN)C[C@H]12 [IMP, imipenem] ; wanted: its MIC50 of the antibiotic after combined use
Reply: 8

Query: Which MIC50 of the antibiotic after combined use reading was recorded for the compound CC(C)(O/N=C(\C(=O)N[C@@H]1C(=O)N2C(C(=O)[O-])=C(C[n+]3ccccc3)CS[C@H]12)c1csc(N)n1)C(=O)O [CAZ, Ceftazidime] ?
Reply: 128

All values here come from patent US11793849B2.
